These measurements were taken from patent US11390616B2.

Target: human APJ receptor (Homo sapiens)
Construct: expressed in transfected cells; host or cells: HEK293
Test: Intracellular cAMP accumulation assay (APJ hcAMP, HTRF)
Type: cell-based
Details: HEK293 cells stably expressing human APJ receptor; inhibition of forskolin-mediated cAMP production; read-out: APJ cAMP Potency range

# smiles representation, EC50
measured = [
    ("CCCCc1nc(O)c(Cc2coc(-c3ccc(Cl)cc3)n2)c(=O)n1-c1c(OC)cccc1OC", "0.01 to 10 nM"),
    ("CCCCc1nc(O)c(Cc2ccc(-c3ccc(Cl)cc3)nc2)c(=O)n1-c1c(OC)cccc1OC", "0.01 to 10 nM"),
    ("CCCCc1nc(=O)c(Cc2cccc(-c3ccnc(F)c3C)c2)c(O)n1[C@@H](CC)c1cc(F)cc(F)c1", "10 to 100 nM"),
    ("CC[C@@H](c1cc(F)cc(F)c1)n1c(CCC2CC2)nc(=O)c(Cc2ccc(-c3ccnc(F)c3C)cc2)c1O", "0.01 to 10 nM"),
    ("CCCCc1nc(=O)c(Cc2ccc(-c3ccc(F)nc3C)cc2)c(O)n1[C@@H](CC)c1cccc(F)c1", "0.01 to 10 nM"),
    ("CC[C@@H](c1cc(F)cc(F)c1)n1c(-c2ccn(CC)n2)nc(=O)c(Cc2ccc(-c3ccc(F)nc3C)cc2)c1O", "0.01 to 10 nM"),
    ("CCCCc1nc(=O)c(Cc2ccc(-c3ccnc(F)c3C)cc2)c(O)n1[C@@H](CC)c1cccc(F)c1", "0.01 to 10 nM"),
    ("CCCCc1nc(O)c(Cc2ccc(-c3ccc(Cl)cn3)cc2)c(=O)n1-c1c(OC)cccc1OC", "0.01 to 10 nM"),
    ("CCCCc1nc(O)c(Cc2csc(-c3ccc(Cl)cc3)n2)c(=O)n1-c1c(OC)cccc1OC", "10 to 100 nM"),
    ("CC[C@@H](c1cc(F)cc(F)c1)n1c(-c2ccn(CC)n2)nc(=O)c(Cc2ccc(-c3ccc(F)nc3)cc2)c1O", "0.01 to 10 nM"),
    ("CCc1cccc(CC)c1-n1c(-c2nc(C)cs2)nc(=O)c(Cc2ccc(-c3ccc(F)cc3C(N)=O)c(F)c2)c1O", "0.01 to 10 nM"),
    ("CC[C@@H](c1ccccc1)n1c(-c2nc(C)cs2)nc(=O)c(Cc2ccc(-c3ccnc(F)c3C)c(F)c2)c1O", "0.01 to 10 nM"),
    ("CCc1cccc(CC)c1-n1c(-c2nc(C)cs2)nc(=O)c(Cc2ccc(-c3ccc(F)nc3C)c(F)c2)c1O", "0.01 to 10 nM"),
    ("CCCCc1nc(=O)c(Cc2ccc(-c3ccnc(F)c3C)cc2)c(O)n1[C@@H](CC)c1cccc(C#N)c1", "0.01 to 10 nM"),
    ("CCCCc1nc(O)c(Cc2ccc(-c3ccc(C)nc3)cc2)c(=O)n1-c1c(OC)cccc1OC", "10 to 100 nM"),
]

====

Biological target: human APJ receptor (Homo sapiens)
Construct: expressed in transfected cells; host or cells: HEK293
Sequence (P35414 1-380): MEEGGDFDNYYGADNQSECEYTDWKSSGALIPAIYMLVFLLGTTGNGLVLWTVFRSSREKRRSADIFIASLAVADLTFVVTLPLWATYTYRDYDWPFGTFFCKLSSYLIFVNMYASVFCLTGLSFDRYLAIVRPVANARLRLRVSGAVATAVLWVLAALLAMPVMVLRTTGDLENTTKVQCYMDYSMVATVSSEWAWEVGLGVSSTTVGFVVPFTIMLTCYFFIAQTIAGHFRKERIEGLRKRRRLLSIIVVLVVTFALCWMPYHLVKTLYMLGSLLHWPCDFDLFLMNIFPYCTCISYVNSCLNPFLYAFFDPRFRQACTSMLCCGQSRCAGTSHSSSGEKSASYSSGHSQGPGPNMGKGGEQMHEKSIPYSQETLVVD
Test: Intracellular cAMP accumulation assay (APJ hcAMP, HTRF)
Assay type: cell-based
Details: HEK293 cells stably expressing human APJ receptor; inhibition of forskolin-mediated cAMP production; read-out: APJ cAMP Potency range
quantity measured: EC50

# molecule, quantity measured, obs value
measured = [
    ("CCCCc1nc(O)c(Cc2ccccc2)c(=O)n1-c1c(OC)cccc1OC [Example 19]", "EC50", "10 to 100 nM"),
    ("CCCCc1nc(O)c(Cc2ccc(-c3csnn3)cc2)c(=O)n1-c1c(OC)cccc1OC [Example 12]", "EC50", "0.01 to 10 nM"),
    ("CCn1ccc(-c2nc(=O)c(Cc3ccc(-c4ccnc(F)c4C)cc3)c(O)n2-c2c(OC)cccc2OC)n1 [Example 63]", "EC50", "0.01 to 10 nM"),
    ("COc1cccc(OC)c1-n1c(CCC(C)C)nc(O)c(Cc2coc(-c3ccc(Cl)cc3)n2)c1=O [Example 18]", "EC50", "10 to 100 nM"),
]
